test system: HOP-92 NSCLC; assay: NCI-60 one-dose screen, 48 h; settings: 10 µM unless noted
About 83,000 compounds went through this panel and 20% of them were active in at least one assay; those are over-represented in the sample as a whole. Calls of active or inactive are those of the source. How the source made its calls: active means growth percent below 10; inactive means the rest.
In this exercise, the only acceptable responses are yes (active), no (inactive)

Some entries whose results are on file:
{"MOLECULE": "O=C(/C=C/c1ccc2c(c1)OCO2)c1c(O)c2ccccc2oc1=O", "CATEGORY": "no"}
{"MOLECULE": "CO/C=C/C(=O)c1cc2cnc3c(=N)cc(NC(=O)C(C)C)c([nH]1)c23", "CATEGORY": "yes"}
{"MOLECULE": "COc1ccc(C2OC(c3cc(-c4cc5ccccc5o4)nn3-c3ccccc3)=NN2C(C)=O)cc1 (stereo unspecified)", "CATEGORY": "no"}
{"MOLECULE": "COc1cc(NCCN(CC(C)C)CC(C)C)c2ncc(C)cc2c1", "CATEGORY": "no"}
{"MOLECULE": "O=C(Cc1ccc(/C=C/C(=O)c2ncc[nH]2)cc1)Nc1ccc(Br)cc1", "CATEGORY": "no"}

Inquiry: What classification did Cn1c(=O)c(F)c(Nc2ccc(I)cc2F)c2c(=O)n(C[C@@H](O)CO)cnc21 end up with in this test?
Reply text: yes

Inquiry: Could you check what this test reported for O=C(c1c(F)ccc(NS(=O)(=O)N2CC[C@@H](F)C2)c1F)c1c[nH]c2ncc(-c3cnc(C4CC4)nc3)cc12 ?
Reply text: no

Inquiry: Please state the recorded outcome for this molecule: N#CC(C#N)=NO
Reply text: no

Inquiry: Hello, I am checking results. What call was entered for Cc1sc2c(c1C)c(=O)nc1c(-c3nc4ccccc4s3)n[nH]n12 ?
Reply text: no

Inquiry: Could you please tell me the result logged for O=C(Nc1ccc(C(=O)Nc2ccc(C3=NCCCN3)cc2)cc1)Nc1ccc(C2=NCCCN2)cc1 in this assay?
Reply text: no

###

test system: OVCAR-4 ovarian; experiment: NCI-60 one-dose screen, 48 h; conditions: 10 µM unless noted
The panel holds about 83,000 compounds, 20% with a hit somewhere; the sample as a whole holds those more often. Calls of active or inactive are those of the source. The calls were made as follows: active = growth percent below 10; inactive = the rest.
Form entry, call: pick from active, inactive

Look over these answered cases.
{"COMPOUND": "COC(=O)[C@@H](OC)[C@@H]1Cc2cc3cc(OC4CC(OC5CC(O)C(O)C(C)O5)C(O)C(C)O4)c(C)c(O)c3c(O)c2C(=O)[C@H]1OC1CC(OC2CC(OC3CC(C)(O)C(O)C(C)O3)C(O)C(C)O2)C(O)C(C)O1 (some centres undefined)", "TEST_TARGET": "OVCAR-4 ovarian", "CATEGORY": "active"}
{"COMPOUND": "O=C(COc1cccc(/C=C2\\Cc3ccc(Cl)cc3C2=O)c1)Nc1nccs1", "TEST_TARGET": "OVCAR-4 ovarian", "CATEGORY": "inactive"}
{"COMPOUND": "O=c1sn(-c2cccc3ccccc23)c(=O)n1Cc1ccccc1", "TEST_TARGET": "OVCAR-4 ovarian", "CATEGORY": "inactive"}

In the following, a different compound is considered.
Inquiry: Could you please tell me the result logged for CCCCCCCCCCCC[n+]1ccccc1 in this assay?
Reply text: inactive
